# System: RPMI-8226 leukemia
# method-summary: NCI tumour cell line growth inhibition, 48 h

{"compound": "CCN(CC)C(=O)c1cccc2c(OC)ccc(OC)c12", "TGI": "> 100 µM"}
{"compound": "COc1ccccc1C1C(C#N)=C(N)SC(N)=C1C#N", "TGI": "32.9 µM"}
{"compound": "Cc1ccccc1NC(=O)C(=O)C(C1OC(=O)c2ccccc21)[N+](=O)[O-] (stereo not drawn)", "TGI": "> 100 µM"}
{"compound": "[Cu].c1ccc2c(c1)C1=NC2=NC2=NC(=NC3=NC(=NC4=NC(=N1)c1ccccc14)c1ccccc13)c1ccccc12", "TGI": "> 100 µM"}
{"compound": "CN(N=O)C(=O)NC(CCCCNC(=O)OCc1ccccc1)C(=O)OCc1ccccc1 (stereo not drawn)", "TGI": "95.4 µM"}
{"compound": "COC(=O)/C(=C(/C)c1ccco1)P(=O)(OC)OC", "TGI": "> 100 µM"}
{"compound": "CC(C)OC(=O)Nc1c([N+](=O)[O-])cc(C(F)(F)F)cc1[N+](=O)[O-]", "TGI": "> 100 µM"}
{"compound": "COc1nc2ncc([C@@H](OC(C)=O)[C@@H](COC(C)=O)OC(C)=O)nc2c(=O)n1C", "TGI": "> 100 µM"}

###

# Test system: RXF-631 renal
# method-summary: NCI tumour cell line growth inhibition, 48 h
Consider the following compounds and their measured TGI readings.
parameter: TGI

{"compound": "CCCN(CCC)C1CC(n2cc(C)c(=O)[nH]c2=O)OC1CO (stereo not given)", "obs-value": "> 100 µM"}
{"compound": "O=[N+]([O-])c1ccc(Cl)c(C2CC(c3cccc4ccccc34)=Nc3ccccc3S2=O)c1 (stereo not given)", "obs-value": "> 100 µM"}
{"compound": "CN(N=O)C(=O)NC(CCCCNC(=O)OCc1ccccc1)C(=O)OCc1ccccc1 (stereo not given)", "obs-value": "44.8 µM"}
{"compound": "O=C1CN=C(c2ccccc2)c2ccncc2N1", "obs-value": "> 100 µM"}
{"compound": "Cc1cccc(-c2nc(=S)[nH][nH]2)c1", "obs-value": "> 100 µM"}

###

Consider the following compounds and their measured log10 of TGI readings.
# Tested on: RPMI-8226 leukemia
# method-summary: NCI tumour cell line growth inhibition, 48 h
parameter: log10 of TGI (log10 of the value in µM)

{"compound": "COc1cccc2c1C(=O)c1c(O)c3c(c(O)c1C2=O)C[C@@](O)(/C(C)=N/NC(=O)c1cccc([N+](=O)[O-])c1)C[C@@H]3OC1CC(N)C(O)C(C)O1 (stereo partly specified)", "log10 of TGI": 0.27}
{"compound": "CCCCCOC(=O)c1c(C)[nH]c(/C=C2\\N=C(c3ccc[nH]3)C=C2OC)c1C", "log10 of TGI": -0.62}
{"compound": "c1ccc2[nH]c(-c3ccc(Nc4nc(N5CCCC5)nc5[nH]ncc45)cc3)nc2c1", "log10 of TGI": -0.28}
{"compound": "OC(c1ccccc1)c1c(-c2ccccc2)[nH]c(-c2ccccc2)c1C(O)c1ccccc1 (stereo unspecified)", "log10 of TGI": 0.70}
{"compound": "CN(C)C(=C1C(Br)=C(Br)C(Br)=C1Br)N(C)C", "log10 of TGI": 1.88}
{"compound": "CN(C)c1ccc(-c2c(C#N)c(-c3ccccc3)n(NS(=O)(=O)c3ccccc3)c(=O)c2C#N)cc1", "log10 of TGI": 1.69}
{"compound": "CC(C)C(Sc1nc(-c2ccccc2)c(-c2ccccc2)[nH]1)C(=O)N/N=C/c1ccc(Cl)cc1 (stereo unspecified)", "log10 of TGI": 1.82}
{"compound": "CN(C)CC1CCC/C(=C\\c2ccc(Cl)c(Cl)c2)C1=O (stereo unspecified)", "log10 of TGI": 0.01}
{"compound": "Cc1cc(C)c2c(c1)CSCc1cc(C)cc(C)c1-2", "log10 of TGI": 1.75}
{"compound": "COc1cccc(C2CC(C)(O)Oc3cc4c(cc32)OCO4)c1 (stereo unspecified)", "log10 of TGI": 1.82}
